For each of the molecules below, state its Growth Rate.
# Tested on: HEK-293T
# test: Incucyte cell viability with HEK293T; also: unitless GR value; below 1 slowed growth and below 0 cell loss
# Type: toxicity, cell-based
# setup_conditions: human, 12 h, 10 µM, compound concentration 10 uM, replicate number 2, timepoint 12 hours
Could you keep your reply to the number by itself?

[Q] Entry OC[C@H]1O[C@@H](n2cnc3c(NC4CCCC4)ncnc32)[C@H](O)[C@@H]1O has what Growth Rate?
[A] 0.6

[Q] Also O=C(NCCN1CCC(n2c(=O)[nH]c3cc(Cl)ccc32)CC1)c1ccc(F)cc1 [HALOPEMIDE] ?
[A] 0.68

[Q] Record: CCCN[C@H]1CCc2nc(N)sc2C1.Cl.Cl
[A] 0.53

[Q] Same thing, different molecule: CCCCCCCC/C=C\CCCCCCCC(N)=O [OLEAMIDE]
[A] 0.99

[Q] Also need Cn1cc(-c2ccc3occ(-c4cccc(-c5ccncc5)c4)c3n2)cn1 , thanks.
[A] -0.44

----------
For each record, write down the corresponding Growth Rate.
# System: Fibroblast
# test: Incucyte cell viability with human fibroblast; also: unitless GR value; below 1 slowed growth and below 0 cell loss
# Format: toxicity, cell-based
# setup_conditions: 0 h, 10 µM, compound concentration 10 uM, replicate number 1, timepoint 0 hours
# answer = number (no unit)

[Q] # query: Growth Rate of entry CCCCNNC(=O)c1ccc(Br)cc1
[A] 0.73

[Q] Try this compound next: COC(=O)[C@H](CCCNC(=N)N)NC(=O)CCCc1c(-c2ccccc2)[nH]c2c(F)cc(F)cc12.O=C(O)C(F)(F)F
[A] 0.79

[Q] Quick one: CSCC[C@H](NC(=O)[C@@H]1CCCN1C(=O)CNC(=O)[C@H](CCCCN)NC(=O)[C@H](Cc1cnc[nH]1)NC(=O)[C@H](CO)NC(=O)[C@H](CC(C)C)NC(=O)[C@H](CCCNC(=N)N)NC(=O)[C@@H]1CCCN1C(=O)[C@H](CCCNC(=N)N)NC(=O)[C@@H](N)CCC(N)=O)C(=O)N1CCC[C@H]1C(=O)N[C@@H](Cc1ccccc1)C(=O)O
[A] 0.13

----------
Field: Growth Rate. Provide a value for each of the compounds that follow.
# Test system: HEK-293T
# test: Incucyte cell viability with HEK293T; also: unitless GR value; below 1 slowed growth and below 0 cell loss
# Format: toxicity, cell-based
# setup_conditions: human, 24 h, 10 µM, compound concentration 10 uM, replicate number 1, timepoint 24 hours
API doc: respond with a numeric literal and nothing else, no unit.

[Q] I would be grateful if you could share the reported Growth Rate for CC(C)COc1ccc(CNC(=O)N(Cc2ccc(F)cc2)C2CCN(C)CC2)cc1 .
[A] -0.29

[Q] What would you report for CS(=O)(=O)c1ccc(C(=O)Nc2ccc(Cl)c(-c3ccccn3)c2)c(Cl)c1 ?
[A] 0.83

[Q] Now give it for N[C@](CC1c2ccccc2Oc2ccccc21)(C(=O)O)[C@H]1C[C@@H]1C(=O)O too.
[A] 0.69

[Q] Consider next the compound NC[C@H](O)c1ccc(O)c(O)c1.O.O=C(O)C(O)C(O)C(=O)O in the same way.
[A] 0.86

[Q] Param item: CC[C@H](Nc1ncnc2[nH]cnc12)c1nc2cccc(F)c2c(=O)n1-c1ccccc1
[A] 0.64

[Q] Also CN(C)CCN(Cc1ccc(-c2ccc(CNCCc3ccccc3)cc2)cc1)C(=O)CCC1CCCC1.Cl.Cl , if possible.
[A] -0.46

[Q] O=C(CCCc1ccccc1)Nc1nc2ccccc2c(=O)s1 ?
[A] 0.34

[Q] Same question, N[C@@H]1c2cccnc2[C@H](OC(=O)N2CCC(n3c(=O)[nH]c4ncccc43)CC2)CC[C@H]1c1cccc(F)c1F this time
[A] 0.89

[Q] CNc1nc(NCc2ncccn2)c2c(-c3ccc4ncccc4c3)c[nH]c2n1 ?
[A] -0.25
